Would you mind telling me the reported Pseudovirus IC50 of each entry?
- TEST_TARGET: SARS-CoV-2 Spike protein on VSV pseudotyped virus particles (Wuhan-1 isolate Spike sequence) (SARS-CoV-2, UniProt P0DTC2 13-1273)
- EXPERIMENT: cell-based or functional assay
Answers are plain numbers, in µg/mL.

Record excerpt, results attached:
[
  {
    "BINDER": "22-F7 (antibody, V domains shown, also called bin C) VH: QVQLVESGGGVVQPGRSLRLSCAASGFSFTNYGMHWVRQAPGKGLEWVAVISYDGSIKYYEDSLKGRFTVSRDNSKKTLYLQMNSLRAEDTAVYYCTRERGTGIDYWGLGTLVTVSS VL: QSALTQPASVSGYPGQSITLSCTGTKSDIGAYNYVSWYQQHPGKAPKLMVYDVSNRPSGLSNRFSGSKSDNTASLTISGLQAEDEAHYYCSSYTTSGTVVFGGGTKVTVL",
    "Pseudovirus IC50 / µg/mL": 12.6
  },
  {
    "BINDER": "22-D9 (antibody, V domains shown, also called bin 4) VH: QVQLVQSGAEVKKPGSSVNVSCKTSGGTFNTYSINWVRQAPGQGLEWMGEIIPIFDKPNYAQKFQGRVTITADESTSTAYMELTSLRSDDTAVYYCARGTGYYYGMDVWGQGTTVTVSS VL: QSVLTQPPSVSGAPRQTVTISCFGSRSNIGNYPVNWYHQVPGKAPKVVVYYDDLLPSGISDRFSGYKSGTSASLTISGLRSEDEADYYCATWDDSLNVWVFGGGTKLTVL",
    "Pseudovirus IC50 / µg/mL": 4.99
  }
]

Provide the reported Pseudovirus IC50 of each entry below, same order.
1. 22-E8 (antibody, V domains shown) VH: QVQLVQSGAEVKKPGSSVKVSCKASGGTFSSYAISWVRQAPGQGLEWMGGIIPIFGTTNYAQKFQGRVTITADESTSTAYMELSSLRSEDTAVYYCARDHGYYYGMDVWGQGTTVTVSS VL: QSVLTQPSSVSAAPRQRVTLSCSGGDSNIGQNGVNWYLHVPGKAPRLVVYYDYLVSAGMSARFSGSRSGTSASLAISGLQSEDEGVYYCASWDDSLSAWVFGGGTKLTVL
2. 24-B8 (antibody, V domains shown) VH: QVQLVQSGAEVKKPGSSVKVSCKASGGTFSNYAISWVRQAPGQGLEWMGGIIPILDTTNYAQKFQGRVTITADESTSTAYMELNSLRSEDTAVYYCVREEGFDYWGQGTLVTVSS VL: QSVLTQPSSLSASPGASASLTCTLRSGINVGAYNIYWYQQKPGSPPQFVLRYNSDSDNQQGSGVPSRFSGSKDASANAGILLISGLQSEDEAEYYCMIWRSSAWVFGGGTKLTVL
3. 27-A11 (antibody, V domains shown) VH: QVQLVQSGAEVKKPGASVKVSCKASGYTFTSYYMHWVRQAPGQGLEWMGIIDPSGGSTSYAQKFQGRVTLTRDTSTSTVYMELSSLRSEDTAVYYCARSRDGYIDDAFDIWGQGTLVTVSS VL: QSVLTQPPSVSAAPGQKVTISCSGSSSNIGNNYVSWYQQLPGTAPKLLIYDNNKRPSGIPDRFSGSKSGTSATLGITGLQTGDEADYYCGTWDSSLSAGVFGGGTKLTVL

11.2
6.26
12.8
